Values from ChEMBL document CHEMBL3596130

pKi: −log10 of the molar value.
# pKi per entry for Mu-type opioid receptor (Homo sapiens, UniProt P35372)

Below, each entry is followed by its recorded pKi result.
input smiles: Oc1ccc2c3c1O[C@H]1c4[nH]c5ccccc5c4C[C@@]4(O)[C@@H](C2)N(CC(F)(F)F)CC[C@]314
experimental system: Mu-type opioid receptor (Homo sapiens, UniProt P35372)
Sequence (P35372 whole entry): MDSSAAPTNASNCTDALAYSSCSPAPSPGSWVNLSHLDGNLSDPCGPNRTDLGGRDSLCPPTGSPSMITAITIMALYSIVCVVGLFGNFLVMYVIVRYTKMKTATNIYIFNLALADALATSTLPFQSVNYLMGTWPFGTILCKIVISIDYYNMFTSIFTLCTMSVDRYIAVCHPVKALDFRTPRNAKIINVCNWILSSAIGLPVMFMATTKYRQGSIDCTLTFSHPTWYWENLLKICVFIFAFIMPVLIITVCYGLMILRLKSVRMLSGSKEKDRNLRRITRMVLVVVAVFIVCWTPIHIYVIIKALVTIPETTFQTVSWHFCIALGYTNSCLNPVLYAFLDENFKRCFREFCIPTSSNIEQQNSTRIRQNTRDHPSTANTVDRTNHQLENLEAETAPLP
reported: < 6.00
//
input smiles: Oc1ccc2c3c1O[C@H]1c4nc5ccccc5cc4C[C@@]4(O)[C@@H](C2)N(CC(F)(F)F)CC[C@]314
experimental system: Mu-type opioid receptor (Homo sapiens, UniProt P35372)
reported: < 6.00

// compound Oc1ccc2c3c1O[C@H]1c4nc5ccccc5cc4C[C@@]4(O)[C@@H](C2)N(CC(F)F)CC[C@]314 , assay Mu-type opioid receptor (Homo sapiens, UniProt P35372), pKi value: < 6.00
